Listed compounds paired with reported Test result (number of subject) (+)
- Tested on: human skin
- measurementNotes: Skin irritation test of active ingredient (patch method, CTFA guidelines)
- Type: in vivo
- conditions: content 1.0%; 20 subjects; 24 hours patch; apparent reddening
- Description: A total of 20 people (10 men and 10 women in their 20s and 30s) were tested for skin irritation using the patch method according to the guidelines of CTFA (The Cosmetic, Toiletry & Fragrance Association, Inc. Washington, D.C.). […] After 24 hours, the pin chamber was removed, and skin conditions were visually observed. The degree and grade for skin irritation were calculated according to the following Equation 1, and the results are shown in Table 3 below. […]
Lab note: jot down the number only; don't add units.

// known answers, use as guide
{"compound": "O=C(O)c1ccc(N(CCN(CCN(c2ccc(C(=O)O)cc2)c2ccc(C(=O)O)cc2)c2ccc(C(=O)O)cc2)CCN(c2ccc(C(=O)O)cc2)c2ccc(C(=O)O)cc2)cc1 [Embodiment 2]", "readoutNumber": 0}
{"compound": "O=C(O)CN(CCN(CCN(CC(=O)O)CC(=O)O)CC(=O)O)CCN(CC(=O)O)CC(=O)O [Embodiment 1]", "readoutNumber": 0}

Turning now to a further compound:
Input line: Give reported Test result (number of subject) (+) value for O=C(O)c1ccc(N2CCCN(c3ccc(C(=O)O)o3)CCN(c3ccc(C(=O)O)o3)CCCN(c3ccc(C(=O)O)o3)CC2)o1 [Embodiment 12]
Output line: 0

---

- Test system: human skin
- measurementNotes: Skin irritation test of active ingredient (patch method, CTFA guidelines)
- Assay type: in vivo
- conditions: content 0.1%; 20 subjects; 24 hours patch; slightly reddish
Listing of entries alongside the reported Test result (number of subject) (±).
The reply should be a number, written without any unit.

Known results for molecules:
{"molecule": "NCCNCCNCCN [Trientine, Triethylenetetramine, reference compound]", "Test result (number of subject) (±)": 0}
{"molecule": "O=C(O)c1ccc(N2CCN(c3ccc(C(=O)O)o3)CCN(c3ccc(C(=O)O)o3)CCN(c3ccc(C(=O)O)o3)CC2)o1", "Test result (number of subject) (±)": 0}

Input line: Quickly give me recorded Test result (number of subject) (±) for `O=C(O)CN(CCN(CCN(CC(=O)O)CC(=O)O)CC(=O)O)CCN(CC(=O)O)CC(=O)O`
Output line: 0

Input line: // fetch Test result (number of subject) (±) given entry `O=C(O)c1cncc(N2CCCN(c3cncc(C(=O)O)c3)CCN(c3cncc(C(=O)O)c3)CCCN(c3cncc(C(=O)O)c3)CC2)c1`
Output line: 0

Input line: Retrieve Test result (number of subject) (±) measured for `O=C(O)c1ccc(N(CCN(CCN(c2ccc(C(=O)O)o2)c2ccc(C(=O)O)o2)c2ccc(C(=O)O)o2)CCN(c2ccc(C(=O)O)o2)c2ccc(C(=O)O)o2)o1` and print it.
Output line: 0

Input line: In one line, give reported Test result (number of subject) (±) of the entry `O=C(O)CN1CCCN(CC(=O)O)CCN(CC(=O)O)CCCN(CC(=O)O)CC1` .
Output line: 0

---

- Tested on: human skin
- measurementNotes: Skin irritation test of active ingredient (patch method, CTFA guidelines)
- Format: in vivo
- conditions: content 1.0%; Equation 1
measure: Degree of irritation
Returns: the value as a bare number; no unit string appended.

Examples with their reported Degree of irritation follow.
{"compound": "O=C(O)c1ccc(N2CCN(c3ccc(C(=O)O)o3)CCN(c3ccc(C(=O)O)o3)CCN(c3ccc(C(=O)O)o3)CC2)o1", "readoutNumber": 0.10}
{"compound": "O=C(O)c1ccc(N(CCN(CCN(c2ccc(C(=O)O)cc2)c2ccc(C(=O)O)cc2)c2ccc(C(=O)O)cc2)CCN(c2ccc(C(=O)O)cc2)c2ccc(C(=O)O)cc2)cc1", "readoutNumber": 0.05}

Now look at this one.
Input line: State Degree of irritation (human skin) of NCCNCCNCCN [Trientine, Triethylenetetramine, reference compound] .
Output line: 0.15

Source: patent US11274268B2
